- System: UO-31 renal
- test: NCI tumour cell line growth inhibition, 48 h
parameter: TGI

Check out these entries, answers already filled in.
{"compound": "COC(=O)C(Cc1ccccc1)C(=O)C(CC(=O)OC(C)(C)C)NC(=O)OC(C)(C)C (stereo not drawn)", "TGI": "66.8 µg/mL"}
{"compound": "COc1ccc(/C=C/C(=O)c2ccc(Nc3ccnc4cc(Cl)ccc34)cc2)cc1", "TGI": "> 100 µM"}
{"compound": "CCOC(=O)NC(=O)c1cn(CCSCCOC(=O)NCCCCCCNC(=O)OCCSCCn2cc(C(=O)NC(=O)OCC)c(=O)[nH]c2=O)c(=O)[nH]c1=O", "TGI": "> 100 µM"}
{"compound": "C[n+]1ccc(-c2c3nc(c(-c4ccc5c(ccc[n+]5C)c4)c4ccc([nH]4)c(-c4cc[n+](C)cc4)c4nc(c(-c5ccc6c(ccc[n+]6C)c5)c5ccc2[nH]5)C=C4)C=C3)cc1", "TGI": "> 50 µM"}
{"compound": "Cc1nn(C)c2c1C(=O)N(C)CC(=O)N2C", "TGI": "> 100 µM"}
{"compound": "CCOC1SC(SC)=NN1C(=O)C(OC(C)=O)C(OC(C)=O)C(OC(C)=O)C(OC(C)=O)C(=O)N1N=C(SC)SC1OCC (stereo not drawn)", "TGI": "> 100 µM"}
{"compound": "CCC/C(=N\\NC(=O)c1cc2ccccc2cc1O)C(CC)C(=O)CCC(=O)N(Cc1ccccc1)Cc1ccccc1 (stereo not drawn)", "TGI": "> 100 µM"}

Continue with the compound presented below.
INPUT: GET /values?readout=TGI&item= COc1ccc(CC2C3=C(CCCC3)CCN2C)cc1 (stereo not drawn)
OUTPUT: > 100 µM

Where do the numbers come from? From PubChem BioAssay (NCI).
